From: ChEMBL document CHEMBL4152200

Experiment: Selectivity index, ratio of CC50 for human MT4 cells to EC50 for HIV-1 RES056 harboring reverse transcriptase K103N/Y181C double mutant infected in human MT4 cells
Format: toxicity, cell-based
Details: read-out: Ratio CC50/EC50
Parameter: selectivity ratio

Some solved entries appear below for comparison.
[[record]]
given_smiles = "CC(=O)Cn1cc(CNC(=O)c2cnc(Nc3ccc(C#N)cc3)cc2Oc2c(C)cc(C)cc2C)nn1"
parameter = "selectivity ratio"
reported_measurement = 9

[[record]]
given_smiles = "Cc1cc(C)c(Oc2cc(Nc3ccc(C#N)cc3)ncc2C(=O)NCc2cn(CC(N)=O)nn2)c(C)c1"
parameter = "selectivity ratio"
reported_measurement = 5


Parameter requested: selectivity ratio. Apply to each item below.
1. Cc1cc(C)c(Oc2cc(Nc3ccc(C#N)cc3)ncc2C(=O)NCc2cn(Cc3cccc(Cl)c3)nn2)c(C)c1
2. CCOC(=O)Cn1cc(CNC(=O)c2cnc(Nc3ccc(C#N)cc3)cc2Oc2c(C)cc(C)cc2C)nn1

Response:
["< 1", "< 1"]

Please give selectivity ratio for each item listed below.
1. Cc1cccc(Cn2cc(CNC(=O)c3cnc(Nc4ccc(C#N)cc4)cc3Oc3c(C)cc(C)cc3C)nn2)c1
2. CCOC(=O)CCn1cc(CNC(=O)c2cnc(Nc3ccc(C#N)cc3)cc2Oc2c(C)cc(C)cc2C)nn1
3. Cc1ccc(Cn2cc(CNC(=O)c3cnc(Nc4ccc(C#N)cc4)cc3Oc3c(C)cc(C)cc3C)nn2)cc1

Response:
< 1
< 1
< 1

State recorded selectivity ratio for all listed compounds.
1. Cc1cc(C)c(Oc2cc(Nc3ccc(C#N)cc3)ncc2C(=O)NCc2cn(CCCO)nn2)c(C)c1
2. COC(=O)Cn1cc(CNC(=O)c2cnc(Nc3ccc(C#N)cc3)cc2Oc2c(C)cc(C)cc2C)nn1

Response:
5
< 1
